assayProcedure: Compound cytotoxicity, XTT-based colorimetric assay
Type: cell-based
testSettings: human, uninfected MT2 cells, day 4, XTT
Protocol: Compound cytotoxicity and the corresponding CC50 values were determined using the same protocol as described in the antiviral assay except that uninfected cells were used. Cytotoxicity was assessed on day 4 in uninfected MT2 cells by using a XTT (2,3-bis[2-Methoxy-4-nitro-5-sulfophenyl]-2H-tetrazolium-5-carboxyanilide inner salt)-based colorimetric assay (Sigma-Aldrich, St Louis, Mo.).
quantity: CC50 at 4 day

compound	assayValue
O=C(Cn1ccc(C2CC2)n1)N[C@@H](Cc1cc(F)cc(F)c1)c1nc2cc(-c3c(F)cccc3F)ccc2c(=O)n1-c1ccc(S(=O)(=O)N2CCOCC2)cc1 [Example 37]	> 1000 nM
COc1cccc(-c2ccc3c(=O)n(-c4ccc(S(=O)(=O)N5CCOCC5)cc4)c([C@H](Cc4cc(F)cc(F)c4)NC(=O)Cn4ccc(C5CC5)n4)nc3c2)n1 [Example 55]	> 1000 nM
Cc1cc(C(F)F)nn1CC(=O)N[C@@H](Cc1cc(F)cc(F)c1)c1nc2cc(-c3ccccc3F)ccc2c(=O)n1-c1ccc(Cl)c2c(NS(=O)(=O)C3CC3)nn(CC(F)F)c12 [Example 137]	> 1000 nM
CS(=O)(=O)Nc1nn(CC(F)(F)F)c2c(-n3c([C@H](Cc4cc(F)cc(F)c4)NC(=O)Cn4nc(C(F)(F)F)c5c4C(F)(F)[C@@H]4C[C@H]54)nc4cc(-c5ccccc5F)ccc4c3=O)ccc(Cl)c12 [Example 182]	> 500 nM
Cc1ncc(-c2ccc3c(=O)n(-c4ccc(Cl)c5c(NS(C)(=O)=O)nn(C)c45)c([C@H](Cc4cc(F)cc(F)c4)NC(=O)Cn4nc(C(F)F)c5c4C(F)(F)[C@@H]4C[C@H]54)nc3c2)cn1 (atropisomer, axis not shown; (aR)) [Example 130]	> 500 nM
Cn1nc(NS(C)(=O)=O)c2c(Cl)ccc(-n3c([C@H](Cc4cc(F)cc(F)c4)NC(=O)Cn4nc(C(F)F)c5c4C(F)(F)[C@@H]4C[C@H]54)nc4cc(-c5ncccn5)ccc4c3=O)c21 (atropisomer, axis not shown; (aR)) [Example 40]	> 1000 nM
CS(=O)(=O)Nc1nn(CC(F)F)c2c(-n3c([C@H](Cc4cc(F)cc(F)c4)NC(=O)Cn4nc(C(F)F)c5c4C(F)(F)[C@@H]4C[C@H]54)nc4cc(-c5ncccn5)ccc4c3=O)ccc(Cl)c12 (atropisomer, axis not shown; (aR)) [Example 124]	> 500 nM
Cn1nc(NS(C)(=O)=O)c2c(Cl)ccc(-n3c([C@H](Cc4cc(F)cc(F)c4)NC(=O)Cn4nc(C(F)F)c5c4C(F)(F)[C@@H]4C[C@H]54)nc4cc(-c5cc(F)c(F)c(F)c5)ccc4c3=O)c21 (atropisomer, axis not shown; (aR)) [Example 108]	> 1000 nM
Cn1nc(NS(C)(=O)=O)c2c(Cl)ccc(-n3c([C@H](Cc4cc(F)cc(F)c4)NC(=O)Cn4nc(C(F)F)c5c4C(F)(F)[C@@H]4C[C@H]54)nc4cc(-c5ccc(C(=O)O)cc5)ccc4c3=O)c21 (atropisomer, axis not shown; (aR)) [Example 100]	> 1000 nM
O=C(Cn1ccc(C2CC2)n1)N[C@@H](Cc1cc(F)cc(F)c1)c1nc2cc(-c3ccccc3F)ccc2c(=O)n1-c1ccc(Cl)c2c(NS(=O)(=O)C3CC3)nn(CC(F)F)c12 (atropisomer, axis not shown) [Example 134]	> 1000 nM
Cc1cccc(C)c1-c1ccc2c(=O)n(-c3ccc(Cl)c4c(NS(C)(=O)=O)nn(C)c34)c([C@H](Cc3cc(F)cc(F)c3)NC(=O)Cn3nc(C(F)F)c4c3C(F)(F)[C@@H]3C[C@H]43)nc2c1 (atropisomer, axis not shown; (aR)) [Example 26]	> 1000 nM
Cn1nc(NS(C)(=O)=O)c2c(Cl)ccc(-n3c([C@H](Cc4cc(F)cc(F)c4)NC(=O)Cn4nc(C(F)F)c5c4C(F)(F)[C@@H]4C[C@H]54)nc4cc(-c5cccnc5)ccc4c3=O)c21 (atropisomer, axis not shown; (aR)) [Example 71]	> 1000 nM
Cn1nc(NS(C)(=O)=O)c2c(Cl)ccc(-n3c([C@H](Cc4cc(F)cc(F)c4)NC(=O)Cn4nc(C(F)F)c5c4C(F)(F)[C@@H]4C[C@H]54)nc4cc(-c5ccc(F)c(CO)c5)ccc4c3=O)c21 (atropisomer, axis not shown; (aR)) [Example 98]	> 1000 nM
Cc1n[nH]c(C)c1-c1ccc2c(=O)n(-c3ccc(Cl)c4c(NS(C)(=O)=O)nn(C)c34)c([C@H](Cc3cc(F)cc(F)c3)NC(=O)Cn3nc(C(F)F)c4c3C(F)(F)[C@@H]3C[C@H]43)nc2c1 (atropisomer, axis not shown; (aR)) [Example 89]	> 1000 nM
Cn1nc(NS(C)(=O)=O)c2c(Cl)ccc(-n3c([C@H](Cc4cc(F)cc(F)c4)NC(=O)Cn4nc(C(F)F)c5c4C(F)(F)[C@@H]4C[C@H]54)nc4cc(-c5ccc(Cl)c(F)c5)ccc4c3=O)c21 [Example 194]	> 1000 nM
Cn1nc(NS(C)(=O)=O)c2c(Cl)ccc(-n3c([C@H](Cc4cc(F)cc(F)c4)NC(=O)Cn4nc(C(F)F)c5c4C(F)(F)[C@@H]4C[C@H]54)nc4cc(-c5ccccc5CO)ccc4c3=O)c21 (atropisomer, axis not shown; (aR)) [Example 116]	> 500 nM
